Counter-ions that a name gives are not always drawn.

[
  {
    "compound": "N=C(N)c1c[nH]c2ccc(CCNC(=O)c3ccc(-c4cnc[nH]4)cc3)cc12 [Example 1h]",
    "melting point": "52 to 54 °C"
  },
  {
    "compound": "N=C(N)c1c[nH]c2ccc(CCNC(=O)c3ccc(-n4cccc4)nc3)cc12 [Example 1ab]",
    "melting point": "213 to 214 °C"
  },
  {
    "compound": "N=C(N)c1c[nH]c2ccc(CCNC(=O)c3ccc(-c4ccnc(N5CCCC5)n4)cc3)cc12 [Example 1aaah]",
    "melting point": "134 to 136 °C"
  },
  {
    "compound": "CN(C)CCOc1ccc(-c2ccc(C(=O)NCCc3ccc4[nH]cc(C(=N)N)c4c3)cc2)cn1 [Example 1aaaaaz]",
    "melting point": "57 to 59 °C"
  },
  {
    "compound": "CN(C)CCNC(=O)Cn1cc(-c2ccc(C(=O)NCCc3ccc4[nH]cc(C(=N)N)c4c3)cc2)ccc1=O [Example 1aaaaad]",
    "melting point": "71 to 75 °C"
  },
  {
    "compound": "N=C(N)c1c[nH]c2ccc(CCNC(=O)c3ccc(-c4ccnc(NCCCCCCN5CCCC5)n4)cc3)cc12 [Example 1aaal]",
    "melting point": "159 to 161 °C"
  },
  {
    "compound": "CC(Oc1nccc(-c2ccc(C(=O)NCCc3ccc4[nH]cc(C(=N)N)c4c3)cc2)n1)C(N)=O (stereo not drawn) [Example 1aaaam]",
    "melting point": "159 to 161 °C"
  },
  {
    "compound": "N=C(N)c1c[nH]c2ccc(CCNC(=O)c3ccc(-c4ccc(=O)n(CC(N)=O)c4)cc3)cc12 [Example 1aq]",
    "melting point": "244 to 245 °C"
  },
  {
    "compound": "CN(C)CCCCCCOc1nccc(-c2ccc(C(=O)NCCc3ccc4[nH]cc(C(=N)N)c4c3)cc2)n1 [Example 1aaaan]",
    "melting point": "82 to 84 °C"
  },
  {
    "compound": "CN(C)CCOc1ccccc1-c1ccc(C(=O)NCCc2ccc3[nH]cc(C(=N)N)c3c2)cc1 [Example 1aaaau]",
    "melting point": "73 to 76 °C"
  },
  {
    "compound": "N=C(N)c1c[nH]c2ccc(CCNC(=O)c3ccc(-c4ccnc(OCC(F)(F)F)n4)cc3)cc12 [Example 1aaag]",
    "melting point": "194 to 195 °C"
  },
  {
    "compound": "CN(C)CCOc1cccc(-c2ccc(C(=O)NCCc3ccc4[nH]cc(C(=N)N)c4c3)cc2)c1 [Example 1aaaas]",
    "melting point": "99 to 101 °C"
  },
  {
    "compound": "N=C(N)c1c[nH]c2ccc(CCNC(=O)c3ccc(-c4ccnc(OC5CCCNC5=O)n4)cc3)cc12 (stereo not drawn) [Example 1aaaap]",
    "melting point": "145 to 147 °C"
  },
  {
    "compound": "CCN(CC)CCCCNc1nccc(-c2ccc(C(=O)NCCc3ccc4[nH]cc(C(=N)N)c4c3)cc2)n1 [Example 1aaap]",
    "melting point": "73 to 76 °C"
  },
  {
    "compound": "CN1CCN(c2nccc(-c3ccc(C(=O)NCCc4ccc5[nH]cc(C(=N)N)c5c4)cc3)n2)CC1 (as salt: salt) [Example 1aaae]",
    "melting point": "111 to 113 °C"
  }
]

Source of measurements: patent US6541505B1
